Readings of GI50 for the listed compounds
- System: HBL-100
- Assay Info: Antiproliferative activity against human HBL-100 cells assessed as reduction in cell growth
- Type: functional
Endpoint Label: GI50 (nM)

{"Molecular String": "c1ccc(COc2ccc(CCOCCCCCCCCCCCC[P+](c3ccccc3)(c3ccccc3)c3ccccc3)cc2OCc2ccccc2)cc1", "Val": 240}
{"Molecular String": "c1ccc([P+](CCCCCOCCc2ccc3c(c2)OCO3)(c2ccccc2)c2ccccc2)cc1", "Val": 680}
{"Molecular String": "[Br-].c1ccc([P+](CCCCCCOCCc2ccc3c(c2)OCO3)(c2ccccc2)c2ccccc2)cc1", "Val": 580}
{"Molecular String": "COc1ccc(CCOCCCCC[P+](c2ccccc2)(c2ccccc2)c2ccccc2)cc1", "Val": 520}
{"Molecular String": "c1ccc(COc2ccc(CCOCCCCCCCCCCCC[P+](c3ccccc3)(c3ccccc3)c3ccccc3)cc2)cc1", "Val": 370}
{"Molecular String": "c1ccc(CCOCCCCCCCCCCCC[P+](c2ccccc2)(c2ccccc2)c2ccccc2)cc1", "Val": 290}
{"Molecular String": "c1ccc(CCOCCCCC[P+](c2ccccc2)(c2ccccc2)c2ccccc2)cc1", "Val": 440}
{"Molecular String": "[Br-].c1ccc(CCOCCCCCC[P+](c2ccccc2)(c2ccccc2)c2ccccc2)cc1", "Val": 260}
{"Molecular String": "c1ccc(COc2ccc(CCOCCCCCC[P+](c3ccccc3)(c3ccccc3)c3ccccc3)cc2)cc1", "Val": 250}
{"Molecular String": "COc1ccc(CCOCCCCCC[P+](c2ccccc2)(c2ccccc2)c2ccccc2)cc1", "Val": 370}
{"Molecular String": "c1ccc([P+](CCCCCCCCCCCCOCCc2ccc3c(c2)OCO3)(c2ccccc2)c2ccccc2)cc1", "Val": 210}
